- testSystem: Tyrosyl-tRNA synthetase, putative (Trypanosoma cruzi (strain CL Brener))
- Sequence (whole entry): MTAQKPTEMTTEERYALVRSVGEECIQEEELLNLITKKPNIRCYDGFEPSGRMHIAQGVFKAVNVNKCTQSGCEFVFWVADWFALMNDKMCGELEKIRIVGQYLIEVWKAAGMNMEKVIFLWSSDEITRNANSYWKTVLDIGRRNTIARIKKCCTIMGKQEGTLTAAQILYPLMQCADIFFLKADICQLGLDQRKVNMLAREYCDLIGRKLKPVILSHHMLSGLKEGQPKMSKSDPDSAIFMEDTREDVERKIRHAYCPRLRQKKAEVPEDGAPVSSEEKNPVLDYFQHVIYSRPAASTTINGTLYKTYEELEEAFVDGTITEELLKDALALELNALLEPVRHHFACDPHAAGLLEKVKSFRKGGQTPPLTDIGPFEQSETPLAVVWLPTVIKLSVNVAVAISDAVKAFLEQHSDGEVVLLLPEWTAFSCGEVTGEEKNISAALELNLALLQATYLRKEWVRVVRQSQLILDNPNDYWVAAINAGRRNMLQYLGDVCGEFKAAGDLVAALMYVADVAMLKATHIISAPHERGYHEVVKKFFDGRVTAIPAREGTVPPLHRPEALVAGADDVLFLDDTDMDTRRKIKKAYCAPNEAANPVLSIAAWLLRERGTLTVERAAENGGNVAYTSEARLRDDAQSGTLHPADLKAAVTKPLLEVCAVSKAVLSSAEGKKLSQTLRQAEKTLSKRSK
- assaySummary: Trypanosoma cruzi tyrosyl tRNA synthetase (TcYRS) _High Tyrosine SOP
- Assay type: functional
- Parameters: scale not given: in the data most compounds retested in dose-response had high values
- setupConditions: 30 µM
// reported Percent Effect for each item listed

compound	Percent Effect [%]
Cc1nc(NC2CCCC2)cc(C2CCN2C(=O)c2cccnc2)n1 (configuration not stated)	6.45
Cc1csc(N2CCN(CC(=O)Nc3nncs3)CC2C)n1 (configuration not stated)	3.96
CC(C)CN1CCCC2(CCN(C(=O)c3cnccn3)C2)C1 (configuration not stated)	3.17
Cc1ncsc1C(=O)N1CCCN(Cc2cscn2)CC1	6.67
Cc1ccccc1C(=O)NCc1ccc(N2CCNC(=O)C2)c(F)c1	4.76
CC(C)c1nc2c(n1C)CCN(Cc1nc(-c3cccs3)no1)C2	6.93
CCOc1ccccc1C(CC(=O)Nc1nc(C)cs1)NC(C)=O (configuration not stated)	3.43
COCCN1CCC(NCc2cccnc2)C1 (configuration not stated)	1.94
NC(=O)C1CCN(CCc2ccc(NC(=O)C3CCC3)cc2)CC1	6.93
Cc1nccc(C2CN(Cc3cc[nH]n3)CCO2)n1 (configuration not stated)	0
CC(C)c1nccn1C1CCCN(C(=O)c2cccc3c2OCO3)C1 (configuration not stated)	2.46
O=C([C@@H]1C[C@@H]2CCN(CCc3ccccc3)C[C@H]2O1)N1CCCC1	4.25
